experiment: Example II: plasma letrozole concentration during 3-day regimen (HPLC/MS); type: in vivo, cattle; settings: female, bovine, plasma, intravenous, 85 μg/kg per day; 250 μg/kg divided in a 3-day regimen; read-out: mean concentration of letrozole in the circulation at 96 hours
measuredAttribute: concentration at 96 hours (ng/mL)
Use ng/mL as the unit, but write only the number.

Consider the molecule shown here: N#Cc1ccc(C(c2ccc(C#N)cc2)n2cncn2)cc1 What is its recorded concentration at 96 hours?
51.6

----------
assay: Example I: plasma letrozole concentration (LC/MS/MS) and non-compartmental pharmacokinetics after single iv dose; assay type: in vivo, cattle; details: female, bovine, plasma, iv, 250 ug/kg, 250 μg/kg single iv, n=9; read-out: Half-life (T1/2) (converted)
measuredAttribute: half-life (h)
Use h as the unit, but write only the number.

Consider the compound shown here: N#Cc1ccc(C(c2ccc(C#N)cc2)n2cncn2)cc1 What is its recorded half-life?
26.6

The origin of these recorded values is patent US9144569B2.
